Can you tell me IC50 for the items I'm about to list?
- tested target: LPA1 (Homo sapiens, UniProt Q92633)
- Construct: ProLink (PK) beta-galactosidase enzyme-fragment tag
- Sequence (Q92633 whole entry, the tested form may be a part): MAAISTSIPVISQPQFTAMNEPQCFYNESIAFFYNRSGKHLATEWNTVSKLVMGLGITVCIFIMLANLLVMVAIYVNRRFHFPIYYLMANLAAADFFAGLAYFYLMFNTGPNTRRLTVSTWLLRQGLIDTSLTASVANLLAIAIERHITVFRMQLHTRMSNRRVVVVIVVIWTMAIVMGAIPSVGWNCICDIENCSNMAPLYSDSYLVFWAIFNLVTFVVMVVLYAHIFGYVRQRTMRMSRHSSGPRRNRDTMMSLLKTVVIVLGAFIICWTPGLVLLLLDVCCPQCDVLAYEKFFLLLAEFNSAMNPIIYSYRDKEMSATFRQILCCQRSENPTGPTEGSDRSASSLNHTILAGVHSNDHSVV
- measurement description: LPA1 calcium flux assay (LPA1 functional antagonist assay)
- experimental conditions: PathHunter CHO-K1 EDG2 β-Arrestin cell line; calcium indicator dye; stimulated with EC80 concentration of LPA; FLIPR Tetra
- Method: Following overnight culture, cells were loaded with calcium indicator dye from the HitHunter Calcium No WashPLUS Assay kit (Eurofins DiscoverX Corporation, Cat #93-0091) for 45 minutes at 37° C. […] IC50 values were determined by Chemical and Biological Information System from ChemInnovation Software, Inc. The compounds of this invention were tested for their activity to inhibit LPA1 as determined in an LPA1 functional antagonist assay as described herein.

Which IC50 value is on record for Cc1nc(-c2nnn(C)c2COC(=O)N(C)CC2CC2)ccc1N1C[C@@H](CC(=O)O)CC(F)(F)C1 [Example 140] ?
0.1 to 0.5 µM

How about this compound: Cc1nc(-c2nnn(C)c2Cn2cc(CC3CC3)nn2)ccc1N1C[C@@H](CC(=O)O)CC(F)(F)C1 [Example 133]
0.1 to 0.5 µM

How about this compound: CCCc1ccc(=O)n(Cc2c(-c3cnc(N4CCCC(CC(=O)O)C4)cn3)nnn2C)c1 (stereo not drawn) [Example 57]
> 5 µM

How about this compound: CCc1nc(-c2nnn(C)c2COc2nccc(C3CCC3)n2)ccc1N1CCCC(CC(=O)O)C1=O (single isomer, unassigned) [Example 94]
0.5 to 5 µM

How about this compound: CCc1nc(-c2nnn(C)c2CN2C[C@H](CC3CC3)NC2=O)ccc1N1C[C@@H](CC(=O)O)CC(F)(F)C1 [Example 65]
> 5 µM

How about this compound: CCCN(C)C(=O)OCc1c(-c2ccc(N3CCC[C@H](CC(=O)O)C3)c(CC)n2)nnn1C [Example 145]
0.5 to 5 µM

How about this compound: CCc1nc(-c2cnn(C)c2COc2cc(-n3cccn3)ncn2)ccc1N1CCC[C@H](CC(=O)O)C1 [Example 90]
< 0.1 µM

How about this compound: CCCc1ccnn(CCc2c(-c3ccc(N4CC(CC(=O)O)CC(F)(F)C4)c(C)n3)nnn2C)c1=O (stereo not drawn) [Example 44]
> 5 µM

How about this compound: Cc1nc(-c2nnn(C)c2COc2nccc(C3CCC3)n2)ccc1N1CCC[C@H](CC(=O)O)C1 [Example 84]
< 0.1 µM

How about this compound: CCc1nc(-c2nnn(C)c2Cn2nnnc2CC2CC2)ccc1N1C[C@@H](CC(=O)O)CC(F)(F)C1 [Example 138]
0.1 to 0.5 µM

How about this compound: CCc1nc(-c2nnn(C)c2Cn2ccc(CC3CC3)c(C)c2=O)ccc1N1C[C@@H](CC(=O)O)CC(F)(F)C1 [Example 10]
0.1 to 0.5 µM

How about this compound: CCCN(C)C(=O)OCc1c(-c2ccc(N3C[C@@H](CC(=O)O)CC(F)(F)C3)c(C)n2)nnn1C [Example 139]
0.1 to 0.5 µM

How about this compound: CCCN(C)C(=O)OCc1c(-c2ccc(N3CCOC(CC(=O)O)C3)c(CC)n2)nnn1C (stereo not drawn) [Example 170]
0.5 to 5 µM

How about this compound: CCCc1cc(=O)n(Cc2c(-c3ccc(N4C[C@@H](CC(=O)O)CC(F)(F)C4)c(CC)n3)nnn2C)cn1 [Example 31]
> 5 µM

How about this compound: CCc1nc(-c2nnn(C)c2Cn2cc(CC3CCC3)ccc2=O)ccc1N1C[C@@H](CC(=O)O)CC(F)(F)C1 [Example 14]
< 0.1 µM

---

Can you tell me pIC50 for the items I'm about to list?
- tested target: LPA1 (Homo sapiens)
- Construct: ProLink (PK) beta-galactosidase enzyme-fragment tag
- measurement description: LPA1 calcium flux assay (LPA1 functional antagonist assay)
- experimental conditions: PathHunter CHO-K1 EDG2 β-Arrestin cell line; calcium indicator dye; stimulated with EC80 concentration of LPA; FLIPR Tetra
pIC50: −log10 of the molar value.

Which pIC50 value is on record for "Cc1nc(-c2nnn(C)c2COc2cc(-n3cccn3)ncn2)ccc1N1CCC[C@H](CC(=O)O)C1" ?
> 7.00

How about this compound: "Cc1nc(-c2nnn(C)c2Cn2ccn(CC3CC3)c2=O)ccc1N1C[C@@H](CC(=O)O)CC(F)(F)C1"
< 5.30

How about this compound: "CCCc1ccc(=O)n(Cc2c(-c3ccc(N4CCC[C@H](CC(=O)O)C4)c(C#N)n3)nnn2C)c1"
< 5.30

How about this compound: CCCc1ccc(=O)n(Cc2c(-c3cc(F)c(N4CCCC(CC(=O)O)C4)c(C)n3)nnn2C)c1 (centres unmarked)
< 5.30

How about this compound: "Cc1nc(-c2nnn(C)c2CN2C[C@H](CC3CC3)N(C)C2=O)ccc1N1C[C@@H](CC(=O)O)CC(F)(F)C1"
6.30 to 7.00

---

- tested target: LPA1 (Homo sapiens, UniProt Q92633)
- Construct: ProLink (PK) beta-galactosidase enzyme-fragment tag
- measurement description: LPA1 calcium flux assay (LPA1 functional antagonist assay)
- experimental conditions: PathHunter CHO-K1 EDG2 β-Arrestin cell line; calcium indicator dye; stimulated with EC80 concentration of LPA; FLIPR Tetra
- Protocol: Following overnight culture, cells were loaded with calcium indicator dye from the HitHunter Calcium No WashPLUS Assay kit (Eurofins DiscoverX Corporation, Cat #93-0091) for 45 minutes at 37° C. […] IC50 values were determined by Chemical and Biological Information System from ChemInnovation Software, Inc. The compounds of this invention were tested for their activity to inhibit LPA1 as determined in an LPA1 functional antagonist assay as described herein.
readout label: IC50

Checklist item: IC50 tested on LPA1 (Homo sapiens, UniProt Q92633), entry "CCCc1cn(Cc2c(-c3ccc(N4C[C@@H](CC(=O)O)CC(F)(F)C4)c(CC)n3)nnn2C)c(=O)cn1" , value?
100 to 500 nM

How about this compound: "CCCc1ccn(Cc2c(-c3ccc(N4C[C@@H](CC(=O)O)CC(F)(F)C4)c(CC)n3)nnn2C)c(=O)c1"
> 5000 nM

How about this compound: "CCc1nc(-c2nnn(C)c2COc2cc(-n3ccnn3)ncn2)ccc1N1CCC[C@H](CC(=O)O)C1"
100 to 500 nM

How about this compound: "CCCc1cc(C)c(=O)n(Cc2c(-c3ccc(N4C[C@@H](CC(=O)O)CC(F)(F)C4)c(C)n3)nnn2C)c1"
500 to 5000 nM

How about this compound: "CCc1nc(-c2nnn(C)c2COC(=O)N(C)CC2CC2)ccc1N1C[C@@H](CC(=O)O)CC(F)(F)C1"
100 to 500 nM

How about this compound: CCc1nc(-c2nnn(C)c2COc2nccc(C3CCC3)n2)ccc1N1CCOC(CC(=O)O)C1 (centres unmarked)
< 100 nM

How about this compound: "Cc1nc(-c2nnn(C)c2Cn2cc(CC3CC3)n(C)c2=O)ccc1N1C[C@@H](CC(=O)O)CC(F)(F)C1"
100 to 500 nM

How about this compound: "CCc1nc(-c2nnn(C)c2COc2cc(-n3nccn3)ncn2)ccc1N1CCC[C@H](CC(=O)O)C1"
100 to 500 nM

How about this compound: "CCc1nc(-c2nnn(C)c2COc2nccc(C3CCC3)n2)ccc1N1CCC[C@H](CC(=O)O)C1"
< 100 nM

How about this compound: "CCc1nc(-c2nnn(C)c2Cn2cc(C(C)C)ccc2=O)ccc1N1C[C@@H](CC(=O)O)CC(F)(F)C1"
< 100 nM

How about this compound: "CCc1nc(-c2nnn(C)c2Cn2cc(C3CC3)c(C)cc2=O)ccc1N1C[C@@H](CC(=O)O)CC(F)(F)C1"
500 to 5000 nM
